Assay: Drug concentration in serum and tissues by LC-MS, pharmacokinetics and BBB permeability
Format: in vivo, mice
Details: C57BL/6, mouse, ipsilateral ischemic hemisphere (IL brain), iv; 15 mg/kg i.v.; IL brain; read-out: t1/2 (elimination half-life) (converted)
PROPERTY_LABEL: half-life

{"SMILES_STRING": "O=C(CCN1CCN(Cc2ccccc2)CC1)Nc1nc(-c2ccccc2)cs1", "VAL": "24.6 min"}

---

Assay: Drug concentration in serum and tissues by LC-MS, pharmacokinetics and BBB permeability
Type: in vivo, mice
Details: C57BL/6, mouse, iv; 15 mg/kg i.v.; Sham brain; tissue density assumed 1 g/ml; mean ± SD; read-out: AUC0–6 h

{"SMILES_STRING": "O=C(CCN1CCN(Cc2ccccc2)CC1)Nc1nc(-c2ccccc2)cs1", "UNIT": "ng·h/mL", "AUC(0-t)": 4580}
